B1: TPR t1 (parent)
chain: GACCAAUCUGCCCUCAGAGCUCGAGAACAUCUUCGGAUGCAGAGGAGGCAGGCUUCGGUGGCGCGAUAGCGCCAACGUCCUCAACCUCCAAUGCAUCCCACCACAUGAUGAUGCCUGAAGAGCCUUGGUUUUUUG

Variants of: B1
Assay: polymerase ribozyme fitness, log enrichment relative to wild type (log ratio); higher = more active; in vitro selection for triplet polymerase activity
Dear colleague, classification is by polymerase ribozyme fitness (log ratio), with ranges listed here: Low: < -3; Mid: ≥ -3 and < -2; High: ≥ -2

Use the examples below as a reference point.
mutation_string="C4U C12G G17C G48A U54C C104A C115G" category_label=Mid
mutation_string="C49A C70G U130C" category_label=Low
mutation_string="A27G C49U C123A" category_label=High
mutation_string="A74C U96A G117C" category_label=Low
mutation_string="G23A G51A A111G" category_label=Low

Inquiry: Band of U21A G39U C62A ?
Reply text: Mid

Inquiry: Can you handle U7G C22U A68C G93U C115U A121G next?
Reply text: Low

Inquiry: And then C11A A41U G45C , what is it?
Reply text: Low

Inquiry: Same read-out for A83G G110A ?
Reply text: High

Inquiry: // query: C15G C40U C56A C73U C80A C124G
Reply text: Low
